Target: UniProt:P10635
Sequence (P10635 whole entry): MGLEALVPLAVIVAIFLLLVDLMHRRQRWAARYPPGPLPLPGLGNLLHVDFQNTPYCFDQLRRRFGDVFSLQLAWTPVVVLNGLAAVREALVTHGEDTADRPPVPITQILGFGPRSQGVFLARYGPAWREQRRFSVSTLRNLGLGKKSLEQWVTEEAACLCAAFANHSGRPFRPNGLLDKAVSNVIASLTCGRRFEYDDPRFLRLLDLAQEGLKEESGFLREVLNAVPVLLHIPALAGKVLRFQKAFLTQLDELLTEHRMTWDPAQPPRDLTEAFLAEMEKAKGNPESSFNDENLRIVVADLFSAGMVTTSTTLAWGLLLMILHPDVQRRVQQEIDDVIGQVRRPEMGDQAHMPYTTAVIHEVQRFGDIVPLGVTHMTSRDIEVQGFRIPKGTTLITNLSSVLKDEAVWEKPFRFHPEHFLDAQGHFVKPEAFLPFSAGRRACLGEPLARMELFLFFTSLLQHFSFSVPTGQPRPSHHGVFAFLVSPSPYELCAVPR
Test: CYP inhibition
Format: in vitro ADME
readout.type: EC50 at 10 µM

# returns recorded EC50 at 10 µM (system: UniProt:P10635) for Cc1ccc(N(/N=C/c2cccc(OC(F)(F)F)c2)C(=O)C(F)(F)F)c(C)c1 [CAD-31]
> 10 µM

----------
Molecular target: CYP 2Cb (Homo sapiens)
Sequence (P11712 whole entry): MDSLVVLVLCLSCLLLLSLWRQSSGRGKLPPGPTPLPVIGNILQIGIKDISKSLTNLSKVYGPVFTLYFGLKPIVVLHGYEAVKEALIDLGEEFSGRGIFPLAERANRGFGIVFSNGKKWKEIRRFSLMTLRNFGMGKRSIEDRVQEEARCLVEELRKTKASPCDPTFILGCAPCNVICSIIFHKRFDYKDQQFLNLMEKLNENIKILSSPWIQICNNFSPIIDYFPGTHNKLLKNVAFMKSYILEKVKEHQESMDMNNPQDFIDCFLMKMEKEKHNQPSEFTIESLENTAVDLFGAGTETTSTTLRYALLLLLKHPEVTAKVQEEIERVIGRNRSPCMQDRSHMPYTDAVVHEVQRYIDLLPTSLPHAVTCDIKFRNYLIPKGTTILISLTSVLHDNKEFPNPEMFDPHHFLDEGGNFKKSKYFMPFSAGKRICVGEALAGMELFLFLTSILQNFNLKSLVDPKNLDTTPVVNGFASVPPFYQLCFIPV
Assay: CYP inhibition
Format: in vitro ADME
readout.type: EC50 at 10 µM

Lab note: need EC50 at 10 µM for Cc1ccc(N(/N=C/c2cccc(OC(F)(F)F)c2)C(=O)C(F)(F)F)c(C)c1 [CAD-31] on CYP 2Cb (Homo sapiens), anyone have it?
> 10 µM
